Values compiled from patent US20090221603A1.

Biological target: rat brain N-type calcium channel subunits (α1B+α2δ+β1b cDNA subunits) (Rattus norvegicus)
Construct: expressed in transfected cells; host or cells: HEK 293 (stably, alternatively transiently, transfected)
Assay: N-type calcium channel block, whole cell patch clamp in HEK 293 cells
Format: cell-based
Settings: pulse frequency 0.2 Hz (frequency dependent block); holding potential −80 mV to +10 mV; read-out: IC50 @ 0.2 Hz
pIC50: −log10 of the molar value.
OBSERVATION TYPE: pIC50

Below: 5 compounds and their reported pIC50.
- COMPOUND: "COCC1CN(C(=O)CNC(c2ccccc2)c2ccccc2)CCN1C(c1ccccc1)c1ccccc1 (stereo not shown)"
  ASSAY SYSTEM: "rat brain N-type calcium channel subunits (α1B+α2δ+β1b cDNA subunits) (Rattus norvegicus)"
  OBSERVATION TYPE: "pIC50"
  MEAS VALUE: 6.82
- COMPOUND: "O=C(CNC(c1ccccc1)c1ccccc1)N1CCN(C(c2ccccc2)c2ccccc2)C(CO)C1 (stereo not shown)"
  ASSAY SYSTEM: "rat brain N-type calcium channel subunits (α1B+α2δ+β1b cDNA subunits) (Rattus norvegicus)"
  OBSERVATION TYPE: "pIC50"
  MEAS VALUE: 6.54
- COMPOUND: "CN1CCC(CN2CCN(C(=O)CNC(c3ccccc3)c3ccccc3)CC2)CC1"
  ASSAY SYSTEM: "rat brain N-type calcium channel subunits (α1B+α2δ+β1b cDNA subunits) (Rattus norvegicus)"
  OBSERVATION TYPE: "pIC50"
  MEAS VALUE: 5.60
- COMPOUND: "O=C(C[S+]([O-])C(c1ccccc1)c1ccccc1)N1CCN(C(c2ccccc2)c2ccccc2)CC1 (stereo not shown)"
  ASSAY SYSTEM: "rat brain N-type calcium channel subunits (α1B+α2δ+β1b cDNA subunits) (Rattus norvegicus)"
  OBSERVATION TYPE: "pIC50"
  MEAS VALUE: 6.70
- COMPOUND: "COCC1CN(C(=O)C[S+]([O-])C(c2ccccc2)c2ccccc2)CCN1C(c1ccccc1)c1ccccc1 (stereo not shown)"
  ASSAY SYSTEM: "rat brain N-type calcium channel subunits (α1B+α2δ+β1b cDNA subunits) (Rattus norvegicus)"
  OBSERVATION TYPE: "pIC50"
  MEAS VALUE: 6.89

[1] O=C(COC(c1ccccc1)c1ccccc1)N1CCN(C(c2ccccc2)c2ccccc2)C(CO)C1 (stereo not shown)
[2] CN(CC(=O)N1CCN(C(c2ccccc2)c2ccc(F)cc2)CC1)C(c1ccccc1)c1ccccc1 (stereo not shown)
query: Which item exceeds the other in pIC50, 1 or 2 ? Please reply using the label of the selected record.
result: 2

====

Target: rat brain N-type calcium channel subunits (α1B+α2δ+β1b cDNA subunits) (Rattus norvegicus, UniProt Q02294)
Construct: expressed in transfected cells; host or cells: HEK 293 (stably, alternatively transiently, transfected)
Sequence (Q02294 whole entry): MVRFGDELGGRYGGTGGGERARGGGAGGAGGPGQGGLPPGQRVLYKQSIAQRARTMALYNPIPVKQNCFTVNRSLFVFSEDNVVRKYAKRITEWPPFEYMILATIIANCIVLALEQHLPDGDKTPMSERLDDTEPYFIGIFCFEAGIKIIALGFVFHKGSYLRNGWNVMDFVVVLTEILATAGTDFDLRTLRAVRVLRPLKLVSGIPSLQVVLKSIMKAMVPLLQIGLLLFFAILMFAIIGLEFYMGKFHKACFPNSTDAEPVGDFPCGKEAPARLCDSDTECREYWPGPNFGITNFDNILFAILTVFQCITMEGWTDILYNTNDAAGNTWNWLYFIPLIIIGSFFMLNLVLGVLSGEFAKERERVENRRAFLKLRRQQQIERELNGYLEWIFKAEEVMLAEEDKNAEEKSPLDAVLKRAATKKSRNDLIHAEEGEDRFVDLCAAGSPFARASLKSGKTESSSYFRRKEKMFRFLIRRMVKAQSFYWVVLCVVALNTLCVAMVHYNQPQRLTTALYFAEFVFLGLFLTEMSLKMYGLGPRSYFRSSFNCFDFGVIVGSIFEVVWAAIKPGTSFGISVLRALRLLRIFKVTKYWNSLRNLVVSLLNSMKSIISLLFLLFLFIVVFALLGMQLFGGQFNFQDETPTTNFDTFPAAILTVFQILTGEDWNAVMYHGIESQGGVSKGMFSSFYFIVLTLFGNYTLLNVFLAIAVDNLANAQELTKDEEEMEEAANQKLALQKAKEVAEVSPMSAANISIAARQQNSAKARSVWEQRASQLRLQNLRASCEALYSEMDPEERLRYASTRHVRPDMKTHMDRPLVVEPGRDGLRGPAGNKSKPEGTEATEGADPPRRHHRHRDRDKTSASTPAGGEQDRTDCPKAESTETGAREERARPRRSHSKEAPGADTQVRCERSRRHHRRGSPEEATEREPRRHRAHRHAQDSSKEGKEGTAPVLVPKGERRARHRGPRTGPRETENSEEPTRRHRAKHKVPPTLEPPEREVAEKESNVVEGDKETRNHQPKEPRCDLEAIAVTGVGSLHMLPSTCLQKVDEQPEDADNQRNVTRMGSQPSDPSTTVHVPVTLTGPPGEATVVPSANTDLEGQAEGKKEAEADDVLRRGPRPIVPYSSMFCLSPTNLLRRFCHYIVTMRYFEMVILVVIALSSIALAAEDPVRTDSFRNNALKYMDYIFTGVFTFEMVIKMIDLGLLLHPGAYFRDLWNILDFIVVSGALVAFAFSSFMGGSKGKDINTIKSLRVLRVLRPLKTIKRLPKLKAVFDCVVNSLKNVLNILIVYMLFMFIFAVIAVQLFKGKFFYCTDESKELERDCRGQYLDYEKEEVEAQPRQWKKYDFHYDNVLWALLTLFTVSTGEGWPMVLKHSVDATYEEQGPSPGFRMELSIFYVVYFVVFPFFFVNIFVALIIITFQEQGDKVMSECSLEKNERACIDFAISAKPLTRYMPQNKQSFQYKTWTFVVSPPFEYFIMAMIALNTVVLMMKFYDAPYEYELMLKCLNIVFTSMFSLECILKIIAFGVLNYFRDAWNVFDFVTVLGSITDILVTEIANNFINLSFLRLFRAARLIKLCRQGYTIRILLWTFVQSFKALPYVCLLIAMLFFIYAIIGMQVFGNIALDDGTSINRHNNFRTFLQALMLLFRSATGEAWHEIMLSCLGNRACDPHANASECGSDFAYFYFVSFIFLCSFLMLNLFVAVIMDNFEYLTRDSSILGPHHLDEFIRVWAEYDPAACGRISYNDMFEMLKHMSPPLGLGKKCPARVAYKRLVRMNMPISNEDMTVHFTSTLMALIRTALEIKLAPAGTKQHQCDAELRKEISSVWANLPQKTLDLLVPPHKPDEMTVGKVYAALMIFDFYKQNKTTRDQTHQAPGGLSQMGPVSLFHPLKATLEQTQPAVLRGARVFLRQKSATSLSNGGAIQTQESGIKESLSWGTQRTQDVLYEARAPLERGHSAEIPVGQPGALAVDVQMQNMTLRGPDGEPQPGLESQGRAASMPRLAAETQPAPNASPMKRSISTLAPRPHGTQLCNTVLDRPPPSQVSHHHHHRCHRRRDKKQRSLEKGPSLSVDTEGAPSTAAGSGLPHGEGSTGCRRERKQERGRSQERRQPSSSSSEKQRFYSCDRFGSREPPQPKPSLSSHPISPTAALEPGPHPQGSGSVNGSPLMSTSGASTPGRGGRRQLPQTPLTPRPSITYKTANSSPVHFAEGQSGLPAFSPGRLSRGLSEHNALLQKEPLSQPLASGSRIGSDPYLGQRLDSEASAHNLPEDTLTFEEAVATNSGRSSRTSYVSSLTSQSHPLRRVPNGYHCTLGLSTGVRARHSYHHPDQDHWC
Sequence (P54290 25-944 partner limits assumed): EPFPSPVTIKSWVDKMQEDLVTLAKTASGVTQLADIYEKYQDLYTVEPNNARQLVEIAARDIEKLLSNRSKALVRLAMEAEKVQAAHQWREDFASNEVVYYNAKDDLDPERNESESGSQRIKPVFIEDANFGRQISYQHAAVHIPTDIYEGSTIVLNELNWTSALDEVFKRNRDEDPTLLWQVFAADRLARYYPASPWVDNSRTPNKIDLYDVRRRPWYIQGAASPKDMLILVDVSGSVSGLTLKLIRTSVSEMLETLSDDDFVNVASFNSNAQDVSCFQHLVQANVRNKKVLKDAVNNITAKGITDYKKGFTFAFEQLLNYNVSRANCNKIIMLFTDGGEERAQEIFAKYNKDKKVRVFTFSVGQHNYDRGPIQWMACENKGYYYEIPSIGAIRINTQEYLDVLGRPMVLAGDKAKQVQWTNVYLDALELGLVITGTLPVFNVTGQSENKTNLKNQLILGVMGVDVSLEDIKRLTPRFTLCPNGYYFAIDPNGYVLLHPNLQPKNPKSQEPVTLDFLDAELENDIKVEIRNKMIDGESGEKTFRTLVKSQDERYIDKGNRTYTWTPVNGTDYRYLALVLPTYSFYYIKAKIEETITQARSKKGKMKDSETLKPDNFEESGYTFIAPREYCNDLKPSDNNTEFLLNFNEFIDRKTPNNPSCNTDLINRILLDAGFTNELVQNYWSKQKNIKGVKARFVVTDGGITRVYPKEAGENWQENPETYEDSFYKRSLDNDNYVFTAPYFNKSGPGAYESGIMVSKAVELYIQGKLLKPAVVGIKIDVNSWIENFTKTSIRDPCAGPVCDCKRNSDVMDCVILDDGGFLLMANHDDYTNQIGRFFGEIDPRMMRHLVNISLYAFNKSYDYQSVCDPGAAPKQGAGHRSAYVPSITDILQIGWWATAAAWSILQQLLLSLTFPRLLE
Sequence (P54290 945-1091 partner limits assumed): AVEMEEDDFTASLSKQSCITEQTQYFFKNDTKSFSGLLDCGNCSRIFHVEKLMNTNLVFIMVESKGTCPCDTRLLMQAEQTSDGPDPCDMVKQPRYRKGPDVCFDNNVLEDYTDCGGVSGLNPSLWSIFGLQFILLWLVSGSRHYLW
Sequence (P54283 whole entry partner): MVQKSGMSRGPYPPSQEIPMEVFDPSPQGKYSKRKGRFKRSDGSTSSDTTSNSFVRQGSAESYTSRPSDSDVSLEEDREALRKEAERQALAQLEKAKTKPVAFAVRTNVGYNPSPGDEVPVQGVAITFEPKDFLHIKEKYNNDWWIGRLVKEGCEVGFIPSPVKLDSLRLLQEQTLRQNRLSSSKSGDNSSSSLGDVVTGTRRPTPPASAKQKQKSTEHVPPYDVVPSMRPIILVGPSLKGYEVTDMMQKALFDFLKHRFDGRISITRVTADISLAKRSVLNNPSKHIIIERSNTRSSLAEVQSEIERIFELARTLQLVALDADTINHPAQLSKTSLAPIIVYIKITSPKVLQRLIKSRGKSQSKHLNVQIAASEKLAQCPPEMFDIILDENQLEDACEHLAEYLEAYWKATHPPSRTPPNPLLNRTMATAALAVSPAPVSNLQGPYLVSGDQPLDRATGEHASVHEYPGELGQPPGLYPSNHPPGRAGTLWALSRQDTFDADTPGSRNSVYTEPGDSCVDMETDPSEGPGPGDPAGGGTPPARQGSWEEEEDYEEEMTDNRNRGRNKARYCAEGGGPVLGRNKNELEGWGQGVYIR
Test: N-type calcium channel block, whole cell patch clamp in HEK 293 cells
Assay type: cell-based
Conditions: pulse frequency 0.2 Hz (frequency dependent block); holding potential −80 mV to +10 mV; read-out: IC50 @ 0.2 Hz
pIC50: −log10 of the molar value.
OBSERVATION TYPE: pIC50

- COMPOUND: "CC1CN(CC2CCOCC2)CC(C)N1C(=O)COC(c1ccccc1)c1ccccc1 (centres unmarked) [Compound 32]"
  pIC50: 6.19
- COMPOUND: "O=C(CSC(c1ccccc1)c1ccccc1)N1CCN(C(c2ccc(F)cc2)c2ccc(F)cc2)CC1 [Compound 47]"
  pIC50: 5.49
- COMPOUND: "CN(CC(=O)N1CCN(C(c2ccccc2)c2ccc(Cl)cc2)CC1)C(c1ccccc1)c1ccccc1 (centres unmarked) [Compound 3]"
  pIC50: 6.07
- COMPOUND: "O=C(CSC(c1ccccc1)c1ccccc1)N1CCN(C(c2ccccc2)c2ccccc2)CC1 [Compound 44]"
  pIC50: 6.57
- COMPOUND: "O=C(C[S+]([O-])C(c1ccccc1)c1ccccc1)N1CCN(C(c2ccc(F)cc2)c2ccc(F)cc2)CC1 (centres unmarked) [Compound 48]"
  pIC50: 6.80
- COMPOUND: "O=C(C[S+]([O-])C(c1ccccc1)c1ccccc1)N1CCN(C(c2ccccc2)c2ccccc2)C(CO)C1 (centres unmarked) [Compound 52]"
  pIC50: 6.01

====

Target: rat brain N-type calcium channel subunits (α1B+α2δ+β1b cDNA subunits) (Rattus norvegicus)
Construct: expressed in transfected cells; host or cells: HEK 293 (stably, alternatively transiently, transfected)
Experiment: N-type calcium channel block, whole cell patch clamp in HEK 293 cells
Type: cell-based
Conditions: low frequency stimulation 0.067 Hz (tonic block); holding potential −80 mV to +10 mV; read-out: IC50 @ 0.067 Hz
OBSERVATION TYPE: IC50 (nM)

In the examples that follow, each entry is paired with its recorded IC50.
- MOLECULE: "CN(CC(=O)N1CCN(C(c2ccccc2)c2ccc(F)cc2)CC1)C(c1ccccc1)c1ccccc1 (stereo not shown)"
  MEAS VALUE: 170
- MOLECULE: "O=C(CSC(c1ccccc1)c1ccccc1)N1CCN(C(c2ccc(F)cc2)c2ccc(F)cc2)CC1"
  MEAS VALUE: 4920
- MOLECULE: "O=C(COC(c1ccccc1)c1ccccc1)N1CCN(C(c2ccccc2)c2ccccc2)CC1"
  MEAS VALUE: 490
- MOLECULE: "CN1CCC(CN2CCN(C(=O)C[S+]([O-])C(c3ccccc3)c3ccccc3)CC2)CC1 (stereo not shown)"
  MEAS VALUE: 4260

[A] CN(CC(=O)N1CCN(C(c2ccccc2)c2cccc(Cl)c2)CC1)C(c1ccccc1)c1ccccc1 (stereo not shown)
[B] CN(CC(=O)N1CCN(C(c2ccccc2)c2ccc(Cl)cc2)CC1)C(c1ccccc1)c1ccccc1 (stereo not shown)
query: Pick one: A or B . Which has the bigger IC50 number? Output the label that corresponds to your choice.
result: B
(B: 2450 nM, A: 1240 nM)

[a] COc1cc(NCC(=O)N2CCN(C(c3ccccc3)c3ccccc3)CC2)cc(OC)c1OC
[b] Cc1cc(CN2CCN(C(=O)COC(c3ccccc3)c3ccccc3)CC2)cc(Cl)n1
query: Min IC50? a | b Respond with the label that goes with your answer.
result: b
(b: 1200 nM, a: 2300 nM)

[a] O=C(COC(c1ccccc1)c1ccccc1)N1CCN(CC2CCOCC2)CC1
[b] O=C(CNc1cccc(Cl)c1)N1CCN(C(c2ccccc2)c2ccccc2)CC1
query: Task for the reader: decide whether a or b has the larger IC50. Give the chosen item's label as your response.
result: a

[A] O=C(CNC(c1ccccc1)c1ccccc1)N1CCN(CC2CCOCC2)CC1
[B] O=C(CNC(c1ccccc1)c1ccccc1)N1CCN(C(c2ccccc2)c2ccccc2)CC1
query: Could you determine which record has the numerically smaller IC50? Candidates: A and B Could you answer with the label of the item you picked?
result: B

[a] COCC1CN(C(=O)COC(c2ccccc2)c2ccccc2)CCN1C(c1ccccc1)c1ccccc1 (stereo not shown)
[b] O=C(CNc1ccccc1)N1CCN(C(c2ccccc2)c2ccccc2)CC1
query: Two entries are listed, a and b . Which one carries the higher IC50? When you have decided, please share the label of that item.
result: b

====

Quick list: pIC50 per entry.
Target: rat brain N-type calcium channel subunits (α1B+α2δ+β1b cDNA subunits) (Rattus norvegicus, UniProt Q02294)
Construct: expressed in transfected cells; host or cells: HEK 293 (stably, alternatively transiently, transfected)
Experiment: N-type calcium channel block, whole cell patch clamp in HEK 293 cells
Assay type: cell-based
Conditions: pulse frequency 0.2 Hz (frequency dependent block); holding potential −80 mV to +10 mV; read-out: IC50 @ 0.2 Hz
Description: A. Transformation of HEK Cells: • N-type calcium channel blocking activity was assayed in human embryonic kidney cells, HEK 293, stably transfected with the rat brain N-type calcium channel subunits (α1B+α2δ+β1b cDNA subunits). […] Whole cell patch clamp experiments were performed using an Axopatch 200B amplifier (Axon Instruments, Burlingame, Calif.) linked to a personal computer equipped with pCLAMP software. […] Data were analyzed using Clampfit (Axon Instruments) and SigmaPlot 4.0 (Jandel Scientific).
pIC50: −log10 of the molar value.

- MOLECULE: "O=C(CNc1ccc(Cl)cc1)N1CCN(C(c2ccccc2)c2ccccc2)CC1 [Compound 17]"
  pIC50: "< 5.34"
- MOLECULE: "CN1CCC(C(=O)N2CCN(C(=O)CNC(c3ccccc3)c3ccccc3)CC2)CC1 [Compound 10]"
  pIC50: "< 5.58"
- MOLECULE: "CN1CCC(CN2CCN(C(=O)COC(c3ccccc3)c3ccccc3)CC2)CC1 [Compound 41]"
  pIC50: "< 5.49"
- MOLECULE: "CC1CN(CC2CCOCC2)CC(C)N1C(=O)C[S+]([O-])C(c1ccccc1)c1ccccc1 (centres unmarked) [Compound 34]"
  pIC50: "< 5.33"

query: Specify measured pIC50 for CN(CC(=O)N1CCN(C(c2ccccc2)c2ccccc2Cl)CC1)C(c1ccccc1)c1ccccc1 (centres unmarked) [Compound 5] .
result: < 5.53
